The molecules listed here are annotated with their bioavailability.
Experiment: Bioavailability in rat (cannulated) (dose 2 mg/kg)
Assay type: ADME, organism-based
Details: in vivo
Express the result in % but write the number alone.

Solved cases (2 shown):
{"Smiles Record": "COc1cc(C(=O)O)c2c(c1C)OC(=O)c1c(C)cc(O)c(CNc3ccc(CNC(=O)CO[C@@H]4C[C@H](C)CC[C@H]4C(C)C)cc3)c1O2", "bioavailability, %": 23}
{"Smiles Record": "COc1cccc(CNc2ccc(CNC(=O)CO[C@@H]3C[C@H](C)CC[C@H]3C(C)C)cc2)c1Oc1ccc([N+](=O)[O-])cc1C(=O)O", "bioavailability, %": 94}

Now look at this entry.
What bioavailability value was documented for this molecule, `CC(C)[C@@H]1CC[C@@H](C)C[C@H]1OCC(=O)Nc1cc(Oc2ccc(C(=O)O)cc2)ccc1[N+](=O)[O-]` ? 24

====

Molecular target: Plasminogen activator inhibitor 1 (Homo sapiens, UniProt P05121)
Sequence (P05121 whole entry): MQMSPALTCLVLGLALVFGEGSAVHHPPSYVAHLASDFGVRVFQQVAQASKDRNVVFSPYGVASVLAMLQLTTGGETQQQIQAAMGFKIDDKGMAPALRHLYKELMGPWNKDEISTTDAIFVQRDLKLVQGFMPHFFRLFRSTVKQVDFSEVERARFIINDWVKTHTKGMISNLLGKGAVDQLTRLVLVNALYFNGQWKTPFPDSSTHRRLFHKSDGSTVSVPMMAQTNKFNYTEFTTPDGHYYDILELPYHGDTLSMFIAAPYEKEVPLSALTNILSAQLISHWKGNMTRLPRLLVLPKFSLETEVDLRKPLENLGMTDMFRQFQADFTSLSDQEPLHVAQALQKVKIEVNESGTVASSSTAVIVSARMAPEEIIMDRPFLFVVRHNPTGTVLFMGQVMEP
Experiment: Plasminogen Activator Inhibitor-1 (PAI-1) activity was determined using plasma clot lysis assay
Format: functional, cell-free
Reported IC50 by item:
Kindly provide the numeric value in nM only, without the unit symbol.

{"Smiles Record": "CC(C)[C@@H]1CC[C@@H](C)C[C@H]1OCC(=O)Nc1cc(Oc2cccc(C(=O)O)c2)ccc1[N+](=O)[O-]", "Reported Metric": "IC50", "Endpoint Result": 100}
{"Smiles Record": "COc1cccc(CNc2ccc(CNC(=O)CO[C@@H]3C[C@H](C)CC[C@H]3C(C)C)cc2)c1Oc1ccc([N+](=O)[O-])cc1C(=O)O", "Reported Metric": "IC50", "Endpoint Result": 100}
{"Smiles Record": "CC(C)[C@@H]1CC[C@@H](C)C[C@H]1OCC(=O)Nc1cc(N2CCC(C(=O)O)CC2)ccc1[N+](=O)[O-]", "Reported Metric": "IC50", "Endpoint Result": 10}
{"Smiles Record": "COc1cc(C(=O)O)c2c(c1C)OC(=O)c1c(C)cc(O)c(CNc3ccc(CNC(=O)CO[C@@H]4C[C@H](C)CC[C@H]4C(C)C)cc3)c1O2", "Reported Metric": "IC50", "Endpoint Result": 100}

Below: the item to evaluate.
Need IC50 of `CC(C)[C@@H]1CC[C@@H](C)C[C@H]1OCC(=O)Nc1cc(Oc2ccc(C(=O)O)cc2)ccc1[N+](=O)[O-]` , thanks. 10

====

Biological target: Plasminogen activator inhibitor 1 (Homo sapiens, UniProt P05121)
Assay: Plasminogen Activator Inhibitor-1 (PAI-1) activity was determined by inhibition of Urokinase-type plasminogen activator using primary assay
In plain terms, low IC50, meaning strictly below 1000 nM, gives yes, and everything else gives no.

IC50 under 1000 nM? Item: `COc1cc(C(=O)O)c2c(c1C)OC(=O)c1c(C)cc(O)c(CNc3ccc(NC(=O)CO[C@@H]4C[C@H](C)CC[C@H]4C(C)C)nc3)c1O2` yes

Check if IC50 falls below 1000 nM for `COc1ccc(Oc2cccc(F)c2CNc2ccc(CNC(=O)CO[C@@H]3C[C@H](C)CC[C@H]3C(C)C)cc2)c(C(=O)O)c1` . no

====

Target: UniProt:P05121
Assay: Plasminogen Activator Inhibitor-1 (PAI-1) activity was determined by inhibition of Urokinase-type plasminogen activator using primary assay
pIC50: −log10 of the molar value.
We use 6 as the dividing line for pIC50: on or above the line is Fulfilled, below is Not fulfilled.

Would you please look over these solved cases?
{"Compound": "CC(C)[C@@H]1CC[C@@H](C)C[C@H]1OCC(=O)Nc1cc(Oc2ccc(C(=O)O)cn2)ccc1[N+](=O)[O-]", "Target": "UniProt:P05121", "Discrete Label": "Not fulfilled"}
{"Compound": "COc1cc(C(=O)O)c(Oc2c(CNc3ccc(CNC(=O)CO[C@@H]4C[C@H](C)CC[C@H]4C(C)C)cc3)c(O)cc(C)c2C(N)=O)c(O)c1C", "Target": "UniProt:P05121", "Discrete Label": "Fulfilled"}
{"Compound": "CC(C)[C@@H]1CC[C@@H](C)C[C@H]1OCC(=O)NCc1ccc(NCc2cc([N+](=O)[O-])ccc2Oc2cc(Oc3ccccc3)ccc2C(=O)O)cc1", "Target": "UniProt:P05121", "Discrete Label": "Not fulfilled"}
{"Compound": "CC(C)[C@@H]1CC[C@@H](C)C[C@H]1OCC(=O)Nc1cc(Oc2cccc(C(=O)O)c2)ccc1[N+](=O)[O-]", "Target": "UniProt:P05121", "Discrete Label": "Fulfilled"}
{"Compound": "CC(C)[C@@H]1CC[C@@H](C)C[C@H]1OCC(=O)NCc1ccc(NCc2cccc(C(=O)O)c2)cc1", "Target": "UniProt:P05121", "Discrete Label": "Not fulfilled"}

Dear colleague, could you confirm whether `CC(C)[C@@H]1CC[C@@H](C)C[C@H]1OCC(=O)NCc1ccc(NCc2cc([N+](=O)[O-])ccc2O)cc1` has pIC50 at or above 6? Not fulfilled

Assess whether reported pIC50 for `CC(C)[C@@H]1CC[C@@H](C)C[C@H]1OCC(=O)NCc1ccc(NCc2ccccc2)cc1` sits at 6 or higher. Not fulfilled

Does the reported pIC50 for `CC(C)[C@@H]1CC[C@@H](C)C[C@H]1OCC(=O)Nc1cc(N2CC(C(=O)O)C2)ccc1[N+](=O)[O-]` fall at or above the 6 mark? Not fulfilled

Please indicate if the recorded pIC50 for `CC(C)[C@@H]1CC[C@@H](C)C[C@H]1OCC(=O)NCc1ccc(NCc2ccncc2)cc1` meets or exceeds 6. Not fulfilled

For this compound, is measured pIC50 6 or higher? `COc1cc(C(=O)O)c2c(c1C)OC(=O)c1c(C)cc(O)c(CN3CCC(NC(=O)CO[C@@H]4C[C@H](C)CC[C@H]4C(C)C)CC3)c1O2` Not fulfilled

In plain terms: is recorded pIC50 at least 6 for `CCCN(Cc1ccc(NCc2c(O)cc(C)c3c2Oc2c(C(=O)O)cc(OC)c(C)c2OC3=O)cc1)C(=O)CO[C@@H]1C[C@H](C)CC[C@H]1C(C)C` ? Not fulfilled

Is reported pIC50 greater than or equal to 6 here: `CC(C)[C@@H]1CC[C@@H](C)C[C@H]1OCC(=O)Nc1cc(Oc2ccc(C(=O)O)cc2)ccc1[N+](=O)[O-]` Fulfilled

Please indicate if the recorded pIC50 for `CC(C)[C@@H]1CC[C@@H](C)C[C@H]1OCC(=O)NCc1ccc(NCc2ccccc2Oc2ccccc2)cc1` meets or exceeds 6. Not fulfilled

Hi team, for `COc1cc(C(=O)O)c2c(c1C)OC(=O)c1c(C)cc(O)c(CNc3ccc(CCNC(=O)CO[C@@H]4C[C@H](C)CC[C@H]4C(C)C)cc3)c1O2` , is the recorded pIC50 at or above 6? Not fulfilled

Tell me whether pIC50 is at least 6 here: CC(C)[C@@H]1CC[C@@H](C)C[C@H]1OCC(=O)Nc1cc(N2CCCCC2C(=O)O)ccc1[N+](=O)[O-] (stereo not given in full) Not fulfilled

====

Target: Plasminogen activator inhibitor 1 (Homo sapiens)
Assay: Plasminogen Activator Inhibitor-1 (PAI-1) activity was determined by inhibition of Urokinase-type plasminogen activator using primary assay
pIC50: −log10 of the molar value.
Lab note: anything with pIC50 at or over 6 counts as true (1); the rest go in false (0).

{"Smiles Record": "COc1cccc(CNc2ccc(CNC(=O)CO[C@@H]3C[C@H](C)CC[C@H]3C(C)C)cc2)c1Oc1ncccc1C(=O)O", "Discrete Label": "true (1)"}

Read the next record carefully.
Is pIC50 at least 6? Consider `CC(C)[C@@H]1CC[C@@H](C)C[C@H]1OCC(=O)NCc1ccc(NCc2ccc(C(=O)O)cc2)cc1` false (0)

====

Target: Plasminogen activator inhibitor 1 (Homo sapiens)
Experiment: Plasminogen Activator Inhibitor-1 (PAI-1) activity was determined by inhibition of Urokinase-type plasminogen activator using primary assay
Reported Metric: pIC50
The read-out pIC50 is expressed as -log10 of concentration in moles per litre.

Examples from the recorded data:
{"Molecule": "CC(C)[C@@H]1CC[C@@H](C)C[C@H]1OCC(=O)Nc1cc(N[C@H]2CC[C@H](C(=O)O)CC2)ccc1[N+](=O)[O-]", "Reported Metric": "pIC50", "Endpoint Result": 5.96}
{"Molecule": "CC(C)[C@@H]1CC[C@@H](C)C[C@H]1OCC(=O)Nc1cc(N[C@H]2CC[C@@H](C(=O)O)CC2)ccc1[N+](=O)[O-]", "Reported Metric": "pIC50", "Endpoint Result": 6.05}
{"Molecule": "COc1cc(C(=O)O)c(Oc2c(CNc3ccc(CNC(=O)CO[C@@H]4C[C@H](C)CC[C@H]4C(C)C)cc3)c(O)cc(C)c2C(=O)O)c(O)c1C", "Reported Metric": "pIC50", "Endpoint Result": 5.74}

For the molecule CC(C)[C@@H]1CC[C@@H](C)C[C@H]1OCC(=O)Nc1cc(N2CCCC2C(=O)O)ccc1[N+](=O)[O-] (stereo not given in full) , what pIC50 is on record? 5.66
